Consider the following molecules; for each one, report its Ki.
TESTED ON: full-length hepatitis C NS3 protease enzyme with NS4A cofactor (HCV NS3/4A protease) (Hepatitis C virus genotype 1a)
Construct: full-length hepatitis C NS3 protease enzyme
Sequence (P27958 1027-1657): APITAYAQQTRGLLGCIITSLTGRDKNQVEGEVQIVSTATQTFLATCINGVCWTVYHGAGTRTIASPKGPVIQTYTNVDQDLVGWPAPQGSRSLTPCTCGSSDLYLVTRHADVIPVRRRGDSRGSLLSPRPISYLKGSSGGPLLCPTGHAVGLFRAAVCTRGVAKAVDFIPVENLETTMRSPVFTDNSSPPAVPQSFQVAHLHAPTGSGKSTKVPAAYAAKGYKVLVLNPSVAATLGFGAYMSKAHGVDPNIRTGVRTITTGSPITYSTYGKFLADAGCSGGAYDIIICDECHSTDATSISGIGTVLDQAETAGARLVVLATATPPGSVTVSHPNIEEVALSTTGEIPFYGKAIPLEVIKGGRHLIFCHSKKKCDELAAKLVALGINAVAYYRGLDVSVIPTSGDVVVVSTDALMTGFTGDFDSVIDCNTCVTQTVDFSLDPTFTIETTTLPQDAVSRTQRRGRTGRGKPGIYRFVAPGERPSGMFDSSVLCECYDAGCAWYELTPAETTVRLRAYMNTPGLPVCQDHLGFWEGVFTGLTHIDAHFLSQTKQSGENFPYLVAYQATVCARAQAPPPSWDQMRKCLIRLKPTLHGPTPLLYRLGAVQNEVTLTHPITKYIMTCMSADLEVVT
EXPERIMENTAL PROTOCOL: HCV NS3/4A protease inhibition assay (enzymatic)
Type: biochemical
RECORDED CONDITIONS: 1 nM enzyme, 25 μM NS4A cofactor, 0.5 μM depsipeptide substrate, 30° C., competitive inhibition model
One number for each entry, in nM.

- SMILES REPRESENTATION: "COc1ccc2c(O[C@@H]3C[C@H]4C(=O)N[C@]5(C(=O)NS(=O)(=O)N(C)C)C[C@H]5/C=C\\CCCCN(C)C(=O)[C@@H]4C3)cc(-c3nc(C(C)C)cs3)nc2c1"
  Ki [nM]: 24

# context switch: different molecule, same Ki
[ask] # query: Ki of entry CCN(C)S(=O)(=O)NC(=O)[C@@]12C[C@H]1/C=C\CCCCN(C)C(=O)[C@@H]1C[C@H](Oc3cc(-c4nc(C(C)C)cs4)nc4cc(OC)ccc34)C[C@H]1C(=O)N2
[reply] 24
